- test summary: NCI Yeast Anticancer Drug Screen. Data for the bub3 strain (AID 167)
- test settings: S. cerevisiae bub3 mutant strain, at 50.0 µM
The panel holds about 79,000 compounds, 15% with a hit somewhere; the sample as a whole holds those more often. Calls of active or inactive are those of the source. No stated cut-off is given here; in the data, active means growth inhibition above about 70%; inactive means the rest.
The categories you may choose from are 1 (yes) = active, 0 (no) = inactive

{"columns": ["compound", "group"],
 "data": [
  ["CSc1ccc(NC(=O)Nc2ccccc2F)cc1", "0 (no)"],
  ["c1ccc(CN2CCCNCC2)cc1", "0 (no)"],
  ["CCN(CC)CCNC(=O)c1c(C)cc(C)cc1C", "0 (no)"],
  ["CCOc1nc(-c2ccccc2)cc(-c2ccc(N3CCOCC3)cc2)c1C#N", "0 (no)"],
  ["C/C(CC(C)C)=N\\NC(=O)Nc1ccccc1Cl", "0 (no)"]
]}

For CC(=O)Nc1ccc(F)c(N)c1 , which call appears in the assay record?
0 (no)

Which result was noted for this compound in the test: CC(C)Nc1ccc(O)cc1
0 (no)

// outcome(item) with item = CCCCCC(=O)OC(C)COc1ccccc1 (centres undefined)
0 (no)

Could you check what this test reported for CCS(=O)(=O)/C=C/c1cccnc1 ?
0 (no)

Please indicate how the test categorized CN1CCCN(C)CCCN(C)CCCN(C)CCC1 .
0 (no)

Assay result, entry O=C(/C=C/c1ccccc1)N(Cc1ccccc1)c1ccccc1 — outcome?
1 (yes)

Hi, do you know how Nc1ncnc(N)c1NC(=O)c1cccc(F)c1 came out in this test?
0 (no)

Check the results log: what was the call for O=C(O)c1ccc(OCC(=O)c2ccccc2)cc1 ?
0 (no)

In this assay, the call recorded for O=C(O)/C(Br)=C(\Br)c1ccccc1 was what?
0 (no)

* * *

- test summary: NCI Yeast Anticancer Drug Screen. Data for the sgs1 mgt1 strain (AID 161);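 further: 0% = growth of cultures given vehicle only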
- test settings: S. cerevisiae sgs1 mgt1 strain, at 50.0 µM
This is part of a sample that, as a whole, favours compounds with a hit. Of some 79,000 tested, about 15% had one in any assay. Activity calls are given as the source filed them. Cut-off read from the data, not from the text of the source: active = growth inhibition above about 70%; inactive = the rest.
Mark one answer only. Choices: label 1 = active, label 0 = inactive

// known answers, use as guide
{"columns": ["compound", "group"],
 "data": [
  ["O=C1CS/C(=N/C(=O)Nc2ccc(Cl)cc2)N1", "label 0"],
  ["CC(C)(C)NC(=S)N/N=C/c1ccccn1", "label 1"],
  ["Cc1ccc(S(=O)(=O)N/N=C/C(C)(c2ccccc2)c2ccccc2)cc1", "label 0"],
  ["COC(=O)CCCCCCCCC(C)C(C)=O (configuration not stated)", "label 0"],
  ["O=C(c1ccccc1)c1ccncc1", "label 0"]
]}

Call for entry COc1ccc(C(=O)/C=C/c2cccc3ccccc23)cc1 :
label 0

Write down the call the test reported for this compound. Item: CC1=C(c2ccccc2)C(c2ccccc2)c2ccccc21 (configuration not stated)
label 0

* * *

- test summary: NCI Yeast Anticancer Drug Screen. Data for the mec2-1 strain (AID 157)
- test settings: S. cerevisiae mec2-1 strain, at 50.0 µM, hits give high values
About 79,000 compounds went through this panel and 15% of them were active in at least one assay; those are over-represented in the sample as a whole.
value type: growth inhibition (%)
Numbers only here, please. The scale is %.

{"columns": ["compound", "unit", "growth inhibition"],
 "data": [
  ["Clc1ccc(Nc2ncnc3oc(-c4ccccc4)c(-c4ccccc4)c23)cc1", "%", 13],
  ["CCOC(O)C(F)(F)C(F)(F)C(F)(F)F (centres undefined)", "%", -32.2],
  ["CCOC(=O)Nc1nc(-c2ccc(Br)cc2)cs1", "%", -5.4],
  ["COc1ccc(C2(C)OC(=O)c3ccccc32)c2ccccc12 (centres undefined)", "%", 49.9],
  ["CC(=O)C(C)(C)Cc1cc(C(C)(C)CC=O)on1", "%", -0.8],
  ["Cn1c2ccccc2c2ccc3c(c21)C(=O)NC3=O", "%", 10.7]
]}

// sample CCc1c([N+](=O)[O-])c2cc([N+](=O)[O-])ccc2n1C , its growth inhibition was 8.85

Quick note, growth inhibition for C#CC[N+](CC)(CC)CC landed at -11.9
